Entries annotated with measured screen value
B1: PAIP1 peptide 126-141 (Polyadenylate-binding protein-interacting protein 1), 16-mer library wild type / PABPC1 PABC (PABPC1 PABC domain, residues 544-623) (parent)
chain 1: SKLSVNAPEFYPSGYS
chain 2: PLTASMLASAPPQEQKQMLGERLFPLIQAMHPTLAGKITGMLLEIDNSELLHMLESPESLRSKVDEAVAVLQAHQAKEAA

# Variants of: B1
# ASSAY_PROTOCOL: proteomic peptide phage display deep mutational scan (ProP-PD DMS): M13 P8 16-mer library selected against immobilised GST-tagged bait for four days (rounds), NGS of the eluted pools per day and pseudo-replica
# RECORDED_CONDITIONS: with PABPC1 PABC (PABPC1 PABC domain, residues 544-623); bait immobilised on MaxiSorp plates (10 µg), library pre-cleared on GST, 2 h binding at 4 °C, five washes; one round per day, days 1-4; value from days 2 and 3; keep out of graded; scale: average fractional NGS count over selection days 2 and 3

Here is how some variants turned out for screen value.
chain 1 Y11H | 0.000612
chain 1 G14E | 0.000246
chain 1 P12F | 0.00121

Exercise: Supply measured screen value of chain 1 S13Q in your reply.
Key: 0

Exercise: Supply measured screen value of chain 1 E9Q in your reply.
Key: 0.000332

Exercise: Supply measured screen value of chain 1 Y11A in your reply.
Key: 0.000962

Exercise: Supply measured screen value of chain 1 G14T in your reply.
Key: 0.000205

Exercise: Supply measured screen value of chain 1 P8W in your reply.
Key: 0.000763

Exercise: Supply measured screen value of chain 1 E9Y in your reply.
Key: 0.000173

Exercise: Supply measured screen value of chain 1 K2V in your reply.
Key: 0.000896

Exercise: Supply measured screen value of chain 1 S1F in your reply.
Key: 0

Exercise: Supply measured screen value of chain 1 S1K in your reply.
Key: 0.00037
